Tested on: DU-145 prostate
METHOD SUMMARY: NCI-60 one-dose screen, 48 h (100 = growth as untreated, 0 = no growth, -100 = all killed)
MEASUREMENT PARAMETERS: 10 µM unless noted
About 83,000 compounds went through this panel and 20% of them were active in at least one assay; those are over-represented in the sample as a whole.
MEASUREMENT TYPE: growth (%)
Reply with just the number (in %).

{"SMI": "CN(C)c1ccc(-c2cc(-c3c[nH]c4ccccc34)nc(N)c2C#N)cc1", "TARGET DESC": "DU-145 prostate", "growth, %": 49.2}
{"SMI": "C[C@H](Nc1ncnc2ccc(-c3cnc(Cl)c(NS(C)(=O)=O)c3)cc12)c1ccccc1", "TARGET DESC": "DU-145 prostate", "growth, %": -2.78}
{"SMI": "CCc1cc(OC(=O)N2CCC(N3CCCCC3)CC2)ccc1Nc1cc(-c2ccc(-n3cccn3)cc2)[nH]n1", "TARGET DESC": "DU-145 prostate", "growth, %": -26.3}
{"SMI": "Cc1ccc2c(n1)C(=O)C(Cl)=C(Nc1cc(C(F)(F)F)cc(C(F)(F)F)c1)C2=O", "TARGET DESC": "DU-145 prostate", "growth, %": 95.3}

Now turn to the next compound.
Exam item: Form field: reported growth of NC1=NC2(CCCC2)N(c2ccc(S(=O)(=O)Nc3nccs3)cc2)C(N)=N1
Marked response: 111

----------
Test system: SN12C renal
METHOD SUMMARY: NCI-60 one-dose screen, 48 h (100 = growth as untreated, 0 = no growth, -100 = all killed)
MEASUREMENT PARAMETERS: 10 µM unless noted
This is part of a sample that, as a whole, favours compounds with a hit. Of some 83,000 tested, about 20% had one in any assay.
MEASUREMENT TYPE: growth (%)
Kindly answer with a numeric value in %, unit omitted.

Past entries and their recorded results:
{"SMI": "Cn1c(SCC(=O)c2ccc(Br)cc2)nc2ccccc2c1=O", "SCALE UNIT": "%", "growth": 96.6}
{"SMI": "CC(=O)OCCCCN1C=C/C(=C\\C(=O)n2ccc3ccccc32)c2ccccc21", "SCALE UNIT": "%", "growth": 108}
{"SMI": "C#C[C@]1(O)CC[C@H]2[C@@H]3CC=C4c5sc(Nc6cc(C)cc(C)c6)nc5CC[C@]4(C)[C@H]3CC[C@@]21C", "SCALE UNIT": "%", "growth": 51.4}

Query compound follows.
Exam item: Look up growth: CC1(C)CC[C@]2(C(=O)NCCCCCCN(CCCN)CCCN)CC[C@]3(C)C(=CC[C@@H]4[C@@]5(C)CC[C@H](O)C(C)(C)[C@@H]5CC[C@]43C)[C@@H]2C1
Marked response: 96.4

----------
Test system: UO-31 renal
METHOD SUMMARY: NCI-60 one-dose screen, 48 h
MEASUREMENT PARAMETERS: 10 µM unless noted
Description: Growth inhibition of the UO-31 human tumor cell line is measured as a screen for anti-cancer activity. Cells are grown in 96 well plates and exposed to the test compound for 48 hours. Compounds are tested at a single concentration, which is 10^-5 M for most compounds. The reported endpoint is percent growth (GI% or GIPRCNT), where numbers from 0 - 100% represent growth inhibition, and numbers from -100% - 0 represent cell death. For example, a value of 40 represents 60% growth inhibition. […]
Compounds without any hit were thinned out: in the full panel of roughly 83,000, 20% have a hit. Active and inactive are the calls of the source. How the source made its calls: active means growth percent below 10; inactive means the rest.
API: response.call in y for active, n for inactive

These recorded examples may help you get a feel for the data.
{"COMPOUND": "Cn1cc(-c2nn3cc(-c4ccncc4)nc3s2)c2cc(F)ccc21", "CLASS": "n"}
{"COMPOUND": "CC1=C(SCC(=O)OCCCCCC(C)C)C(=O)c2ccccc2C1=O", "CLASS": "n"}

Exam item: Each compound tested received a call. Report the one for CC(=O)C1=C(C)NC(NNc2ccccc2)=NC1c1ccc([N+](=O)[O-])cc1 (stereo not drawn) .
Marked response: n

Exam item: Recorded test outcome, item CC1(C)CC[C@]23CC[C@]4(C)[C@H](CC[C@@H]5[C@@]6(C)CC[C@H](N)C(C)(C)[C@@H]6CC[C@]54C)[C@H]2[C@H]1OC3
Marked response: n

Exam item: Please share the test call associated with O=S(=O)(NCCCNc1nccc(-c2[nH]c(-c3ccccc3)nc2-c2ccc(F)c(O)c2)n1)c1cccc(F)c1 .
Marked response: n

Exam item: Dear colleague, could you share the recorded outcome for Cc1ccccc1N1CCN(C2=C(Cl)C(=O)c3ncccc3C2=O)CC1 when you have a moment?
Marked response: y

Exam item: Name the outcome recorded for Cc1ccc(NC(=O)/C=C/c2ccc(OCCCOc3ccc4c(C)cc(=O)oc4c3)cc2)cc1 in the assay.
Marked response: n

----------
Test system: RPMI-8226 leukemia
METHOD SUMMARY: NCI-60 one-dose screen, 48 h
MEASUREMENT PARAMETERS: 10 µM unless noted
The panel holds about 83,000 compounds, 20% with a hit somewhere; the sample as a whole holds those more often. Calls of active or inactive are those of the source. The calls were made as follows: active = growth percent below 10; inactive = the rest.
Bench note: report the call from active, inactive

Exam item: Each compound tested received a call. Report the one for NC1[C@H]2CN(c3cnc(C(=O)Nc4cc(F)cc5cccnc45)cn3)C[C@@H]12 (stereo not given in full) .
Marked response: inactive

Exam item: Answer briefly: the call reported for CNC(=O)c1cc(N2CCc3cc(NC(=O)Nc4ccc(N5CCN(C)CC5)c(C(F)(F)F)c4)ccc32)ccn1 in this assay.
Marked response: active

Exam item: Called result for O=C(CSc1cc[n+](CCCCO)c2ccccc12)n1ccc2ccccc21
Marked response: inactive

Exam item: Call for entry O=S(=O)(Oc1ccc(-c2cn3ccoc3n2)cc1)C1CCCCC1 :
Marked response: inactive

Exam item: Any idea what this test logged for Cc1csc(/N=C(N)/N=C(\N)c2cccnc2)n1 ?
Marked response: inactive

Exam item: Recorded test call requested for CC(C)(C)OC(=O)Nc1ccc(-c2cccc(Oc3ccc4nnc(Cl)n4n3)c2)cc1
Marked response: inactive

Exam item: For C[C@@H]1OCC2(CCN(c3cnc(C(=O)Nc4cc(F)cc5cccnc45)cn3)CC2)[C@@H]1N , what call appears in the results of this test?
Marked response: inactive

----------
Overview of recorded growth for various molecules
System: U251 CNS
METHOD SUMMARY: NCI-60 one-dose screen, 48 h (100 = growth as untreated, 0 = no growth, -100 = all killed)
MEASUREMENT PARAMETERS: 10 µM unless noted
The panel holds about 83,000 compounds, 20% with a hit somewhere; the sample as a whole holds those more often.
I only need the number, in %, no unit after it.

Solved cases (2 shown):
{"SMI": "COc1ccccc1/C=C1\\Oc2ccc(O)c(O)c2C1=O", "SCALE UNIT": "%", "VAL": 86.8}
{"SMI": "N#Cc1c(-c2ccc(Br)cc2)cc(-c2c[nH]c3ccccc23)nc1N", "SCALE UNIT": "%", "VAL": 52.6}

Exam item: Param item = N#Cc1cccc(-c2cc(-c3ccc4c(c3)OCCO4)[nH]n2)c1 ; retrieve measured growth.
Marked response: 30.2

Exam item: Report growth for CC(C)(C)Nc1nc2c(OCCc3ccccc3)cccn2c1-c1cccc(Oc2ccccc2)c1 please.
Marked response: 13.5

Exam item: Record request: growth value, item COc1ccc(-c2c3c(cn2Cc2cccc(OC)c2)-c2oncc2CCC3)cc1
Marked response: 93.2

Exam item: Could you share which growth value was measured for COc1cc2oc(-c3cccc(NC(=O)[C@@H](N)C(C)C)c3)cc(=O)c2c(OC)c1OC ?
Marked response: 92.3

Exam item: Quick one: growth of CN1CCN(Cc2ccc(NC(=O)c3cncc(C#Cc4cnc5ccc(OCCCS(C)(=O)=O)nn45)c3)cc2C(F)(F)F)CC1 ?
Marked response: -4.26

Exam item: Fill in: growth of O=C(/C=C/c1ccc(Cl)c(Cl)c1)Nc1ncc(Cc2ccc(Cl)c(Cl)c2)s1 is ___
Marked response: 58.2

Exam item: growth lookup needed for O=C(CCCCCCNC(=O)c1csc(Br)n1)NO , thanks.
Marked response: 49.3

Exam item: Returns the measured growth for the input molecule. Input: Cc1ccc(S(=O)(=O)NCCCNc2nccc(-c3[nH]c(-c4ccccc4)nc3-c3ccc(F)c(O)c3)n2)cc1
Marked response: 98.2

----------
Test system: NCI/ADR-RES ovarian
METHOD SUMMARY: NCI-60 one-dose screen, 48 h (100 = growth as untreated, 0 = no growth, -100 = all killed)
MEASUREMENT PARAMETERS: 10 µM unless noted
This is part of a sample that, as a whole, favours compounds with a hit. Of some 83,000 tested, about 20% had one in any assay.
MEASUREMENT TYPE: growth (%)
Please respond with the number in % and leave the unit unwritten.

Solved entries:
{"COMPOUND": "CNC(=O)c1cc(-c2ccc(NC(=S)Nc3cccc(C(F)(F)F)c3)cc2)nc2cccnc12", "SCALE UNIT": "%", "VAL": 95.3}
{"COMPOUND": "C#CCOc1cccc(-c2nc(N)nc(Nc3ccccc3SSc3ccccc3Nc3nc(N)nc(-c4cccc(OCC#C)c4)n3)n2)c1", "SCALE UNIT": "%", "VAL": 5.66}
{"COMPOUND": "Cc1cc(C)cc(NC2=C(Cl)C(=O)c3nc(C)ccc3C2=O)c1", "SCALE UNIT": "%", "VAL": 65.6}

Exam item: What growth value was documented for this compound, CCCCCCNC(=O)Oc1ccc(/C(=C(/C)c2ccc(OC)cc2)c2ccc(OCCN3CCCCCC3)cc2)cc1 ?
Marked response: 48.2
